The measurements presented in this section are drawn from patent US5001154A.

Assay: fervescence activity by intravenous injection (rising of body temperature), 1 mg/kg
Format: in vivo, Wister male rats
Conditions: 1 mg/kg intravenous, urethane-anesthetized rats
assayMetric: Rising of Body Temperature

{"columns": ["molecule", "Rising of Body Temperature"],
 "data": [
  ["CCOC(=O)CCC/C=C\\C[C@H]1C(=O)C[C@@H](O)[C@@H]1CCC(=O)CCCC(C)C", "+0.6 °C"],
  ["CCCCC(F)C(=O)CC[C@H]1[C@H](O)CC(=O)[C@@H]1C/C=C\\CCCC(=O)OCC (some centres unmarked)", "+1.4 °C"],
  ["CCCCCC(=O)CC[C@H]1[C@H](O)CC(=O)[C@@H]1C/C=C\\CC(C)CC(=O)OCC (some centres unmarked)", "+1.0 °C"],
  ["CCCCCCCC(=O)CC[C@H]1[C@H](O)CC(=O)[C@@H]1CCCCCCC(=O)OC", "+0.4 °C"],
  ["CCCCCC(=O)CC[C@H]1[C@H](C)CC(=O)[C@@H]1C/C=C\\CCCC(=O)OCC", "+0.2 °C"],
  ["CCCCCC(=O)CC[C@H]1[C@H](O)CC(=O)[C@@H]1C/C=C\\CC(C)CC(=O)OC (some centres unmarked)", "+1.7 °C"],
  ["COCCCCCC(=O)CC[C@H]1[C@H](O)CC(=O)[C@@H]1C/C=C\\CC=CC(=O)OC", "+0.2 °C"]
]}

Moving on to the next molecule.
# Rising of Body Temperature lookup, item CCCCC[C@H](O)/C=C/[C@H]1[C@H](O)CC(=O)[C@@H]1CCCCCCC(=O)O 0 °C
